Target: AChE from electric eel (Electrophorus electricus)
Construct: AChE was obtained from electric eel and BuChE from equine serum; purchased Sigma Aldrich; host or cells: electric eel (natural source)
Sequence (O42275 24-633): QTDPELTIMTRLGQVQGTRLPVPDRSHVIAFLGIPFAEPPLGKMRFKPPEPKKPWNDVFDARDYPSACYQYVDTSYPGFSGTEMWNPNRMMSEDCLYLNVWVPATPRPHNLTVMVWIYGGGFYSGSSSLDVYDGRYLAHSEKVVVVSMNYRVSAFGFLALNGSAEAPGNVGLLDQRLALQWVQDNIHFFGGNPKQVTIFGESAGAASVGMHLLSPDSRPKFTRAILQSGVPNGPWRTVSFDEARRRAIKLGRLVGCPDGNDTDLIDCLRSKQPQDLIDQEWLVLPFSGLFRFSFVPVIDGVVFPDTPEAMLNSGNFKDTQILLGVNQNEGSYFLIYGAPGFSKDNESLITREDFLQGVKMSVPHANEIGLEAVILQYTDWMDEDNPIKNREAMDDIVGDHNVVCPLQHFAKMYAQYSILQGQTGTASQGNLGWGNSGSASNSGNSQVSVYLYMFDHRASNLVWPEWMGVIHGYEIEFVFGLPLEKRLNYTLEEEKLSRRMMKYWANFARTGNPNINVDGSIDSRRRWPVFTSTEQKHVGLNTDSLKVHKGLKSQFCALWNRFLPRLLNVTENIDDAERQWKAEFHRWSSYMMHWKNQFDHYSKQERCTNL
Assay: eeAChE inhibition, Ellman's method
Type: biochemical
Conditions: AChE from electric eel; read-out: eeAChE IC50 Mean ± SEM
Procedure: The inhibitory activities of the tested compounds against cholinesterases were evaluated by Ellman’s method. AChE was obtained from electric eel and BuChE from equine serum. Donepezil and rivastigmine were used as reference compounds. […]. Inhibitory activities of the tested compounds against cholinesterases were measured using a spectrophotometric method modified for 96-well microplates as described recently. […]. […] Then, the percent of inhibition of tested enzymes for each compound was calculated. […]

| compound | target_desc | unit_abbrev | IC50 |
| --- | --- | --- | --- |
| CC1CCCN(CCCCCCOc2cccc(-c3ccccc3)c2)C1 (stereo not drawn) | AChE from electric eel (Electrophorus electricus) | µM | 4.71 |
| CC1CCCN(CCCCCCOc2ccc(-c3ccccc3)cc2)C1 (stereo not drawn) | AChE from electric eel (Electrophorus electricus) | µM | 5.02 |
| c1ccc(-c2cccc(OCCCCCCN3CCCCCC3)c2)cc1 | AChE from electric eel (Electrophorus electricus) | µM | 3.86 |

---

Listed below: IC50 values for each entry.
target: BuChE from equine serum (Equus caballus); construct: AChE was obtained from electric eel and BuChE from equine serum; purchased Sigma Aldrich; host or cells: equine serum (natural source); assay: eqBuChE inhibition, Ellman's method; format: biochemical; settings: BuChE from equine serum; read-out: eqBuChE IC50 Mean ± SEM
Sequence (P81908 whole entry): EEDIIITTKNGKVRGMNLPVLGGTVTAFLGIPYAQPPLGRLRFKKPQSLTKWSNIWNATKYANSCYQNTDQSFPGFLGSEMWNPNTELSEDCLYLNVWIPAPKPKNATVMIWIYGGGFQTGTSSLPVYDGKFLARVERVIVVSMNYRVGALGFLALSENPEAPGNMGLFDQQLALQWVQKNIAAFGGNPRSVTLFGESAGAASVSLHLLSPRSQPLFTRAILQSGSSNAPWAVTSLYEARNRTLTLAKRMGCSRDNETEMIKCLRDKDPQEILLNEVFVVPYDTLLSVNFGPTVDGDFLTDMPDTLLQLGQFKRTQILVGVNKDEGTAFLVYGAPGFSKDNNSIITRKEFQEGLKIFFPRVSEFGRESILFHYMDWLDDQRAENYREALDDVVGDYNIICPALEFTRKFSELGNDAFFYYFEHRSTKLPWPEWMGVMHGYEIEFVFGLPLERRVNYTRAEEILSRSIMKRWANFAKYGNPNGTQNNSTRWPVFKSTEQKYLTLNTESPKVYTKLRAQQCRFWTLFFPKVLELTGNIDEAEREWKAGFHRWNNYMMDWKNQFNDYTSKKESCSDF

| molecule | IC50 / µM |
| --- | --- |
| CC1CCN(CCCCCCOc2cccc(-c3ccccc3)c2)CC1 [Compound 17] | 1.49 |
| CC1CCCN(CCCCCCOc2ccc(-c3ccccc3)cc2)C1 (stereo not shown) [Compound 13] | 0.95 |
| c1ccc(-c2cccc(OCCCCCCN3CCCCCC3)c2)cc1 [Compound 21] | 0.87 |
| c1ccc(-c2cccc(OCCCCCN3CCCCC3)c2)cc1 [Compound 7] | 1.29 |
| c1ccc(-c2ccc(OCCCCCCN3CCCCC3)cc2)cc1 [Compound 8] | 1.63 |
| c1ccc(-c2ccc(OCCCCCN3CCCCC3)cc2)cc1 [Compound 6] | 2.16 |
| CC1CCCN(CCCCCCOc2cccc(-c3ccccc3)c2)C1 (stereo not shown) [Compound 14] | 1.52 |
| CC1CCCN(CCCCCCOc2ccccc2-c2ccccc2)C1 (stereo not shown) [Compound 15] | 2.1 |
| c1ccc(-c2cccc(OCCCCCN3CCCCCC3)c2)cc1 [Compound 20] | 0.47 |
| CC1CCCN(CCCCCOc2cccc(-c3ccccc3)c2)C1 (stereo not shown) [Compound 12] | 0.68 |

---

Listed below: inhibition at 10 µM values for each entry.
molecular target: AChE from electric eel (Electrophorus electricus); construct: AChE was obtained from electric eel and BuChE from equine serum; purchased Sigma Aldrich; host or cells: electric eel (natural source); assay: eeAChE inhibition, Ellman's method; assay type: biochemical; conditions: read-out: eeAChE % Inh.

| molecule | sign | inhibition at 10 µM, % |
| --- | --- | --- |
| CC1CCCN(CCCCCCOc2ccccc2-c2ccccc2)C1 (stereo not shown) | = | 24 |
| CC1CCCN(CCCCCCOc2ccc(-c3ccccc3)cc2)C1 (stereo not shown) | > | 50 |
| c1ccc(-c2ccc(OCCCCCCN3CCCCC3)cc2)cc1 | = | 48 |
| CC1CCN(CCCCCCOc2cccc(-c3ccccc3)c2)CC1 | = | 48 |
| c1ccc(-c2ccc(OCCCCCN3CCCCC3)cc2)cc1 | = | 24 |
| c1ccc(-c2ccc(OCCCCCN3CCCCCC3)cc2)cc1 | = | 44 |
| c1ccc(-c2ccccc2OCCCCCCN2CCCCCC2)cc1 | = | 30 |

---

target: AChE from electric eel (Electrophorus electricus); construct: AChE was obtained from electric eel and BuChE from equine serum; purchased Sigma Aldrich; host or cells: electric eel (natural source); assay: eeAChE inhibition, Ellman's method; format: biochemical; conditions: read-out: eeAChE % Inh.

| molecule | target_desc | unit_abbrev | sign | inhibition at 10 µM |
| --- | --- | --- | --- | --- |
| CC1CCN(CCCCCOc2cccc(-c3ccccc3)c2)CC1 | AChE from electric eel (Electrophorus electricus) | % | = | 41 |
| CC1CCCN(CCCCCOc2cccc(-c3ccccc3)c2)C1 (stereo not shown) | AChE from electric eel (Electrophorus electricus) | % | = | 27 |
| c1ccc(-c2ccccc2OCCCCCCN2CCCCC2)cc1 | AChE from electric eel (Electrophorus electricus) | % | = | 8 |
| c1ccc(-c2cccc(OCCCCCCN3CCCCCC3)c2)cc1 | AChE from electric eel (Electrophorus electricus) | % | > | 50 |
| c1ccc(-c2cccc(OCCCCCN3CCCCC3)c2)cc1 | AChE from electric eel (Electrophorus electricus) | % | = | 24 |
| c1ccc(-c2cccc(OCCCCCN3CCCCCC3)c2)cc1 | AChE from electric eel (Electrophorus electricus) | % | = | 26 |
| CC1CCCN(CCCCCOc2ccc(-c3ccccc3)cc2)C1 (stereo not shown) | AChE from electric eel (Electrophorus electricus) | % | = | 45 |
| c1ccc(-c2cccc(OCCCCCCN3CCCCC3)c2)cc1 | AChE from electric eel (Electrophorus electricus) | % | = | 35 |
| CC1CCN(CCCCCCOc2ccccc2-c2ccccc2)CC1 | AChE from electric eel (Electrophorus electricus) | % | = | 20 |
| CC1CCCN(CCCCCCOc2cccc(-c3ccccc3)c2)C1 (stereo not shown) | AChE from electric eel (Electrophorus electricus) | % | > | 50 |

---

Listed below: pIC50 values for each entry.
target: BuChE from equine serum (Equus caballus); construct: AChE was obtained from electric eel and BuChE from equine serum; purchased Sigma Aldrich; host or cells: equine serum (natural source); assay: eqBuChE inhibition, Ellman's method; format: biochemical; settings: BuChE from equine serum; read-out: eqBuChE IC50 Mean ± SEM
pIC50: −log10 of the molar value.

| molecule | pIC50 |
| --- | --- |
| CC1CCCN(CCCCCOc2ccc(-c3ccccc3)cc2)C1 (stereo not drawn) | 6.04 |
| CC1CCN(CCCCCCOc2ccccc2-c2ccccc2)CC1 | 5.83 |
| c1ccc(-c2cccc(OCCCCCCN3CCCCC3)c2)cc1 | 5.75 |
| CC1CCN(CCCCCOc2cccc(-c3ccccc3)c2)CC1 | 5.84 |
| c1ccc(-c2ccccc2OCCCCCCN2CCCCC2)cc1 | 5.89 |
| c1ccc(-c2ccccc2OCCCCCCN2CCCCCC2)cc1 | 6.16 |

---

target: human histamine H3 receptor (Homo sapiens); construct: expressed in transfected cells; host or cells: HEK293; assay: hH3R radioligand binding assay ([3H]Nα-methylhistamine)
Sequence (Q9Y5N1 whole entry): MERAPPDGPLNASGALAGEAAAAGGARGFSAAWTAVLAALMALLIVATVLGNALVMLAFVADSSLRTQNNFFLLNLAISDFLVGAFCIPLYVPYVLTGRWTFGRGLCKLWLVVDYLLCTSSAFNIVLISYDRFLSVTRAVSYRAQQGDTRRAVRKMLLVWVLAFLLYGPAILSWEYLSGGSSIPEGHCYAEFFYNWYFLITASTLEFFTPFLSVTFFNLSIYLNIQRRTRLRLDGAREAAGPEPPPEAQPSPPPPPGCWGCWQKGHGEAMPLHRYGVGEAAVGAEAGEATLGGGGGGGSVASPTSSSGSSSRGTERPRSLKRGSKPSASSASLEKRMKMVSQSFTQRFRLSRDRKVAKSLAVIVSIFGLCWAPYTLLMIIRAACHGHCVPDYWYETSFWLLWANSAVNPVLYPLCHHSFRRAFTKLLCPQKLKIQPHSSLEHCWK

| molecule | Ki |
| --- | --- |
| CC1CCN(CCCCCCOc2ccccc2-c2ccccc2)CC1 [Compound 18] | 561 nM |
| CC1CCCN(CCCCCCOc2cccc(-c3ccccc3)c2)C1 (stereo not drawn) [Compound 14] | 27 nM |
| c1ccc(-c2ccccc2OCCCCCCN2CCCCCC2)cc1 [Compound 22] | 528 nM |
| CC1CCCN(CCCCCCOc2ccccc2-c2ccccc2)C1 (stereo not drawn) [Compound 15] | 23 nM |
| c1ccc(-c2ccccc2OCCCCCCN2CCCCC2)cc1 [Compound 10] | 221 nM |
| CC1CCCN(CCCCCOc2cccc(-c3ccccc3)c2)C1 (stereo not drawn) [Compound 12] | 45 nM |

---

Biological target: human MAO B (Homo sapiens)
Construct: purchased Sigma Aldrich M7441
Sequence (P27338 1-520): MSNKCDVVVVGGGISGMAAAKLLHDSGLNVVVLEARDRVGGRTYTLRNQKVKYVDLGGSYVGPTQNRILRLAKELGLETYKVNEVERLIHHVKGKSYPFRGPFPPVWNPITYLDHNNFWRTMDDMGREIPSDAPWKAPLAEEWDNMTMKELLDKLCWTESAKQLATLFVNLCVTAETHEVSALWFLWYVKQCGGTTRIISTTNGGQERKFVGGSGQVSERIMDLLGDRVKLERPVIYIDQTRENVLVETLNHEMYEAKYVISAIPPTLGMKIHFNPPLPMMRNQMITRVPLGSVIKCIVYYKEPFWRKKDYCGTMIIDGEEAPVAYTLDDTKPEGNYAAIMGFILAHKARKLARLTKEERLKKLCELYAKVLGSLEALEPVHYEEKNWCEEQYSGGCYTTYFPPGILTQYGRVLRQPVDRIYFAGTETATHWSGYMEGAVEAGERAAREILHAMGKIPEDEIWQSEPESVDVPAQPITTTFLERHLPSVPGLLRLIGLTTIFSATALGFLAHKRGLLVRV
Assay: fluorometric Monoamine Oxidase assay
Format: biochemical
Details: at 1 μM; read-out: hMAO B %Inh. (converted)
1 means recorded inhibition at 1 µM is 20% or above; 0 means it is below 20%.

| molecule | class_label |
| --- | --- |
| c1ccc(-c2ccccc2OCCCCCCN2CCCCCC2)cc1 [Compound 22] | 0 |
| c1ccc(-c2cccc(OCCCCCCN3CCCCC3)c2)cc1 [Compound 9] | 0 |
| c1ccc(-c2cccc(OCCCCCCN3CCCCCC3)c2)cc1 [Compound 21] | 1 |
| c1ccc(-c2ccc(OCCCCCCN3CCCCC3)cc2)cc1 [Compound 8] | 1 |
| CC1CCN(CCCCCCOc2cccc(-c3ccccc3)c2)CC1 [Compound 17] | 0 |
| c1ccc(-c2ccc(OCCCCCCN3CCCCCC3)cc2)cc1 [Compound 5] | 1 |
| c1ccc(-c2ccc(OCCCCCN3CCCCC3)cc2)cc1 [Compound 6] | 1 |
| CC1CCCN(CCCCCOc2ccc(-c3ccccc3)cc2)C1 (stereo not drawn) [Compound 11] | 1 |
| CC1CCCN(CCCCCOc2cccc(-c3ccccc3)c2)C1 (stereo not drawn) [Compound 12] | 0 |
| CC1CCN(CCCCCCOc2ccc(-c3ccccc3)cc2)CC1 [Compound 4] | 1 |
| c1ccc(-c2ccccc2OCCCCCCN2CCCCC2)cc1 [Compound 10] | 1 |
| CC1CCCN(CCCCCCOc2cccc(-c3ccccc3)c2)C1 (stereo not drawn) [Compound 14] | 1 |
| CC1CCCN(CCCCCCOc2ccccc2-c2ccccc2)C1 (stereo not drawn) [Compound 15] | 0 |
| c1ccc(-c2cccc(OCCCCCN3CCCCCC3)c2)cc1 [Compound 20] | 0 |
| CC1CCN(CCCCCOc2cccc(-c3ccccc3)c2)CC1 [Compound 16] | 0 |
| c1ccc(-c2ccc(OCCCCCN3CCCCCC3)cc2)cc1 [Compound 19] | 1 |
| CC1CCN(CCCCCOc2ccc(-c3ccccc3)cc2)CC1 [Compound 3] | 1 |
| c1ccc(-c2cccc(OCCCCCN3CCCCC3)c2)cc1 [Compound 7] | 0 |
| Clc1ccc(CCCOCCCN2CCCCC2)cc1 [Pitolisant, reference compound] | 0 |
| CC1CCN(CCCCCCOc2ccccc2-c2ccccc2)CC1 [Compound 18] | 1 |

All figures here come from paper PMC8231170.
